# assay.notes: Plasma pharmacokinetics following oral administration in rats
# Type: in vivo, rat
# run.parameters: male, Sprague Dawley, rat, plasma, po, 10 mg/kg, Cmax of BEX in plasma; p.o. (lipid-based), dose equivalent to 10 mg/kg BEX, rat; read-out: C0 or Cmax
# Method: The protocols for pharmacokinetic and biodistribution experiments in this study were reviewed and approved by the University of Nottingham Ethical Review Committee in accordance with the Animals [Scientific Procedures] Act 1986. […] Jugular vein cannulation surgery procedures were conducted under general anaesthesia for blood sampling. […] Blood samples of 250 μL volume were collected from the cannula at pre-determined time points following administration. […]
experimental.endpoint: Cmax (ng/mL)
One number for each entry, in ng/mL.

**Q:** Looking for the measured Cmax of "C=C(c1ccc(C(=O)O)cc1)c1cc2c(cc1C)C(C)(C)CCC2(C)C" , can you help?
**A:** 1100

---

# assay.notes: Plasma pharmacokinetics following oral administration in rats
# Format: in vivo, rat
# run.parameters: male, Sprague Dawley, rat, plasma, po, 10 mg/kg, BEX in plasma; p.o. (lipid-based), dose equivalent to 10 mg/kg BEX
experimental.endpoint: AUC(0-t) (ng·h/mL)
Numbers only, in ng·h/mL.

**Q:** Looking for the measured AUC(0-t) of "C=C(c1ccc(C(=O)O)cc1)c1cc2c(cc1C)C(C)(C)CCC2(C)C" , can you help?
**A:** 5660

---

# assay.notes: Prodrug conversion assay in rat plasma
# Format: in vitro ADME
# run.parameters: rat, plasma, in vitro, 37 °C, free form, read-out: half-life of active drug release in rat plasma
# Experimental: The prodrugs were tested for their stability and conversion into their corresponding active drug using fasted state simulated intestinal fluid (FaSSIF) with added esterase enzyme activity (20 IU/mL), rat plasma, and postprandial rat lymph. […] Samples were withdrawn at pre-determined time points, and the reaction was terminated by addition of acetonitrile. […] Half-life of active drug release (t1/2) was calculated by the following equation: t1/2 = −0.693/k. […]
Please go through the items and note down their half-life at 10 μM.
Numbers only, in min.

C=C(c1ccc(C(=O)OCC)cc1)c1cc2c(cc1C)C(C)(C)CCC2(C)C [prodrug 2]
20

We next turn to a different compound, shown below.
**Q:** Looking for the measured half-life at 10 μM of C=C(c1ccc(C(=O)OCc2oc(=O)oc2C)cc1)c1cc2c(cc1C)C(C)(C)CCC2(C)C [prodrug 25] , can you help?
**A:** 8

---

# assay.notes: Plasma pharmacokinetics following oral administration in rats
# Type: in vivo, rat
# run.parameters: male, Sprague Dawley, rat, plasma, po, 10 mg/kg, Cmax of BEX in plasma; p.o. (lipid-free), dose equivalent to 10 mg/kg BEX, rat; read-out: C0 or Cmax
# Protocol: The protocols for pharmacokinetic and biodistribution experiments in this study were reviewed and approved by the University of Nottingham Ethical Review Committee in accordance with the Animals [Scientific Procedures] Act 1986. […] Jugular vein cannulation surgery procedures were conducted under general anaesthesia for blood sampling. […] Blood samples of 250 μL volume were collected from the cannula at pre-determined time points following administration. […]
experimental.endpoint: Cmax
Give me the value, and tack the unit on after it.

**Q:** Looking for the measured Cmax of C=C(c1ccc(C(=O)O)cc1)c1cc2c(cc1C)C(C)(C)CCC2(C)C [BEX, bexarotene] , can you help?
**A:** 899 ng/mL
